// values below are reported Inhibation
# target_or_system: α-glucosidase (Saccharomyces cerevisiae, UniProt P53341)
# Construct: the yeast form of α-glucosidase, which was extracted from Saccharomyces cerevisiae; purchased Sigma-Aldrich; host or cells: Saccharomyces cerevisiae (extracted)
# Sequence (P53341 whole entry): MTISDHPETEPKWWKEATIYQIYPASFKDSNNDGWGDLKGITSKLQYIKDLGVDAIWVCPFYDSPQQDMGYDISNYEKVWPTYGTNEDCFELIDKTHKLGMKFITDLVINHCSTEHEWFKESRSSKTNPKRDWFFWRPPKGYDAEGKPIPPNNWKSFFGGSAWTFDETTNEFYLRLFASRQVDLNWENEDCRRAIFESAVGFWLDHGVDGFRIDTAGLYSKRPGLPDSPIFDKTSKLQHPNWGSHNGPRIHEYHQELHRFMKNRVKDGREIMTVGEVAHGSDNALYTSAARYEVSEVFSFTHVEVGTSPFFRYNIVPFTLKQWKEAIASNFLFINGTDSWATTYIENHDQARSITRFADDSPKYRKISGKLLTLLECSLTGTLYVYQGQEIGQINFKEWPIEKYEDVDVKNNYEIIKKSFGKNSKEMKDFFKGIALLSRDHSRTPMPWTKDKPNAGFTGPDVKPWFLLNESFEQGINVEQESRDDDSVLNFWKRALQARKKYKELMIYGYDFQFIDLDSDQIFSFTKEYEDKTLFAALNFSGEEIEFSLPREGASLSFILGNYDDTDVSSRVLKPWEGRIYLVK
# experimental_protocol: Anti-α-glucosidase assay (p-nitrophenyl-α-D-glucopyranoside substrate, absorbance 405 nm)
# Format: biochemical
# experimental_parameters: Conc. 15 (unit not given); IC50 determination curve
Keep it simple and answer with nothing but the number.

Would you please look over these solved cases?
O=C(Cn1cc(COc2ccc(/C=N/Nc3nnc(-c4ccccc4)c(-c4ccccc4)n3)cc2)nn1)Nc1ccc(Cl)cc1 [Compound 13j]	73.02
O=C(Cn1cc(COc2ccc(/C=N/Nc3nnc(-c4ccccc4)c(-c4ccccc4)n3)cc2)nn1)NCCc1ccccc1 [Compound 13n]	79.27
O=C(Cn1cc(COc2ccc(/C=N/Nc3nnc(-c4ccccc4)c(-c4ccccc4)n3)cc2)nn1)Nc1ccc(Br)cc1 [Compound 13k]	49.91

Below: the item to evaluate.
Prompt: Record request: Inhibation value, item O=C(Cn1cc(COc2ccc(/C=N/Nc3nnc(-c4ccccc4)c(-c4ccccc4)n3)cc2)nn1)Nc1ccccc1 [Compound 13a]
Response: 76.53

###

# target_or_system: α-glucosidase (Saccharomyces cerevisiae, UniProt P53341)
# Construct: the yeast form of α-glucosidase, which was extracted from Saccharomyces cerevisiae; purchased Sigma-Aldrich; host or cells: Saccharomyces cerevisiae (extracted)
# experimental_protocol: Anti-α-glucosidase assay (p-nitrophenyl-α-D-glucopyranoside substrate, absorbance 405 nm)
# Format: biochemical
# experimental_parameters: IC50 (from IC50 determination curves, supplement), logarithmic fit of inhibition vs Conc.; unit inferred
pIC50: −log10 of the molar value.
reported_endpoint: pIC50

In the examples that follow, each entry is paired with its recorded pIC50.
Cc1ccc(NC(=O)Cn2cc(COc3ccc(/C=N/Nc4nnc(-c5ccccc5)c(-c5ccccc5)n4)cc3)nn2)c(C)c1 [Compound 13d]	> 4.82
O=C(Cn1cc(COc2ccc(/C=N/Nc3nnc(-c4ccccc4)c(-c4ccccc4)n3)cc2)nn1)Nc1ccccc1F [Compound 13g]	> 4.82
CCc1ccc(NC(=O)Cn2cc(COc3ccc(/C=N/Nc4nnc(-c5ccccc5)c(-c5ccccc5)n4)cc3)nn2)cc1 [Compound 13e]	> 4.82
Cc1ccccc1NC(=O)Cn1cc(COc2ccc(/C=N/Nc3nnc(-c4ccccc4)c(-c4ccccc4)n3)cc2)nn1 [Compound 13b]	4.90
O=C(Cn1cc(COc2ccc(/C=N/Nc3nnc(-c4ccccc4)c(-c4ccccc4)n3)cc2)nn1)Nc1ccccc1Cl [Compound 13h]	> 4.82

Now let's try a different one.
Prompt: Which pIC50 is reported with α-glucosidase (Saccharomyces cerevisiae, UniProt P53341) for this entry: O=C(Cn1cc(COc2ccc(/C=N/Nc3nnc(-c4ccccc4)c(-c4ccccc4)n3)cc2)nn1)Nc1ccccc1 [Compound 13a] ?
Response: > 4.82

###

# target_or_system: α-glucosidase (Saccharomyces cerevisiae)
# Construct: the yeast form of α-glucosidase, which was extracted from Saccharomyces cerevisiae; purchased Sigma-Aldrich; host or cells: Saccharomyces cerevisiae (extracted)
# experimental_protocol: Anti-α-glucosidase assay (p-nitrophenyl-α-D-glucopyranoside substrate, absorbance 405 nm)
# Assay type: biochemical
# experimental_parameters: IC50 (from IC50 determination curves, supplement), logarithmic fit of inhibition vs Conc.; unit inferred
Catalogue of IC50 values

A selection of reference data follows.
COc1ccc(NC(=O)Cn2cc(COc3ccc(/C=N/Nc4nnc(-c5ccccc5)c(-c5ccccc5)n4)cc3)nn2)cc1 [Compound 13f]	10.9 µM
O=C(Cn1cc(COc2ccc(/C=N/Nc3nnc(-c4ccccc4)c(-c4ccccc4)n3)cc2)nn1)Nc1ccccc1[N+](=O)[O-] [Compound 13l]	34.2 µM
O=C(Cn1cc(COc2ccc(/C=N/Nc3nnc(-c4ccccc4)c(-c4ccccc4)n3)cc2)nn1)Nc1cccc(Cl)c1 [Compound 13i]	11.7 µM
O=C(Cn1cc(COc2ccc(/C=N/Nc3nnc(-c4ccccc4)c(-c4ccccc4)n3)cc2)nn1)Nc1ccc(Br)cc1 [Compound 13k]	15.3 µM
O=C(Cn1cc(COc2ccc(/C=N/Nc3nnc(-c4ccccc4)c(-c4ccccc4)n3)cc2)nn1)Nc1ccc(Cl)cc1 [Compound 13j]	< 15 µM
Cc1cccc(NC(=O)Cn2cc(COc3ccc(/C=N/Nc4nnc(-c5ccccc5)c(-c5ccccc5)n4)cc3)nn2)c1 [Compound 13c]	< 15 µM

Prompt: Query (compound): O=C(Cn1cc(COc2ccc(/C=N/Nc3nnc(-c4ccccc4)c(-c4ccccc4)n3)cc2)nn1)NCCc1ccccc1 [Compound 13n] ; field requested: IC50
Response: < 15 µM
